The origin of these recorded values is ChEMBL document CHEMBL1201861.

Task for the reader: assign each of the following compounds its reported IC50.
System: Calu-3;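 note: growth inhibition of human Calu-3 cells, determined with a cell viability assay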
Protocol Text: cells
Assay type: functional, cell-based
Recorded Conditions: Homo sapiens
Description: SANGER: Inhibition of human Calu-3 cell growth in a cell viability assay.

Look up and report measured IC50 for this entry: CN(C)CCOc1ccc(-c2nc(-c3ccncc3)c(-c3ccc4c(c3)CC/C4=N\O)[nH]2)cc1
> 5 µM

Look up and report measured IC50 for this entry: O=S(=O)(O)c1ccc2cc(/N=N/c3cc(S(=O)(=O)O)c4cccnc4c3O)ccc2c1
> 16 µM

Look up and report measured IC50 for this entry: COc1ccc(-c2cc3nccn3c(Nc3ncccc3C(N)=O)n2)cc1OC
> 8 µM

Look up and report measured IC50 for this entry: OC[C@H](Cc1ccccc1)Nc1nc(Oc2ccc3c(c2)CCC3)nc2c1ncn2Cc1ccc(-c2ccccc2)cc1
> 10.2 µM

Look up and report measured IC50 for this entry: CS(=O)(=O)N1CCN(Cc2cc3nc(-c4cccc5[nH]ncc45)nc(N4CCOCC4)c3s2)CC1
3.71 µM

Look up and report measured IC50 for this entry: CC1=C(/C=C/C(C)=C/C=C/C(C)=C/C(=O)O)C(C)(C)CCC1
> 10 µM

----------
Test system: HCC1419
Protocol Text: cells
Type: functional, cell-based
Recorded Conditions: Homo sapiens
Description: SANGER: Inhibition of human HCC1419 cell growth in a cell viability assay.
pIC50: −log10 of the molar value.
Measurement Type: pIC50

GET pIC50 where system = HCC1419 and item = Cc1ccc(C(=O)Nc2ccc(CN3CCN(C)CC3)c(C(F)(F)F)c2)cc1C#Cc1cnc2cccnn12
< 6.29

GET pIC50 where system = HCC1419 and item = NC1(c2ccc(-c3nc4ccn5c(=O)[nH]nc5c4cc3-c3ccccc3)cc2)CCC1
6.31

GET pIC50 where system = HCC1419 and item = CC1(C)CCC(c2ccc(Cl)cc2)=C(CN2CCN(c3ccc(C(=O)NS(=O)(=O)c4ccc(N[C@H](CCN5CCOCC5)CSc5ccccc5)c(S(=O)(=O)C(F)(F)F)c4)cc3)CC2)C1
< 5.70

GET pIC50 where system = HCC1419 and item = CC1=C(/C=C/C(C)=C/C=C/C(C)=C/C(=O)O)C(C)(C)CCC1
< 5.00

GET pIC50 where system = HCC1419 and item = NC(=O)Nc1cc(-c2cccc(F)c2)sc1C(=O)N[C@H]1CCCNC1;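 note: growth inhibition of human HCC1419 cells, read out as cell viability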
< 5.70

----------
System: A101D
Protocol Text: cells
Assay type: functional, cell-based, Homo sapiens
Recorded Conditions: Homo sapiens, A101D
Description: SANGER: Inhibition of human A101D cell growth in a cell viability assay.
pIC50: −log10 of the molar value.
Task for the reader: assign each of the following compounds its reported pIC50.

GET pIC50 where system = A101D and item = C=CC(=O)N1CCCC(Nc2nc(Nc3ccc(N(C)C(=O)CC)cc3)nc3[nH]cnc23)C1 (centres undefined)
< 4.99

GET pIC50 where system = A101D and item = CC1=C(/C=C/C(C)=C/C=C/C(C)=C/C(=O)O)C(C)(C)CCC1 [TRETINOIN]
< 5.00

GET pIC50 where system = A101D and item = CS(=O)(=O)N1CCN(Cc2cc3nc(-c4cccc5[nH]ncc45)nc(N4CCOCC4)c3s2)CC1 [PICTILISIB]
6.00

GET pIC50 where system = A101D and item = O=S(=O)(O)c1ccc2cc(/N=N/c3cc(S(=O)(=O)O)c4cccnc4c3O)ccc2c1
< 4.80

GET pIC50 where system = A101D and item = COC(=O)[C@H](CCSC)NC(=O)c1ccc(NC[C@@H](N)CS)cc1-c1ccccc1
< 5.99

GET pIC50 where system = A101D and item = COc1ccc(-c2cc3nccn3c(Nc3ncccc3C(N)=O)n2)cc1OC
5.31

GET pIC50 where system = A101D and item = Cc1ccc(-n2nc(C(C)(C)C)cc2NC(=O)Nc2ccc(OCCN3CCOCC3)c3ccccc23)cc1 [DORAMAPIMOD]
< 5.00

GET pIC50 where system = A101D and item = Cc1ccc(C(=O)Nc2ccc(CN3CCN(C)CC3)c(C(F)(F)F)c2)cc1C#Cc1cnc2cccnn12 [PONATINIB]
< 6.29

GET pIC50 where system = A101D and item = Cc1ccc(NC(=O)c2ccc(CN3CCN(C)CC3)cc2)cc1Nc1nccc(-c2cccnc2)n1 [IMATINIB];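 note: growth inhibition of the cell line, measured with a viability assay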
< 5.70
